Tested on: S. schottmeulleri UC 126
Experiment: standard disc plate assay, zone of inhibition
Type: cell-based
Conditions: 1 mg/ml; 12.5 mm paper discs; read-out: Zones of Inhibition
Listed compounds paired with reported zone of inhibition at 1000 µg/mL

COMPOUND	zone of inhibition at 1000 µg/mL [mm]
NC[C@H]1O[C@H](O[C@@H]2[C@@H](N)C[C@@H](N)C[C@H]2OC2O[C@H](CO)[C@@H](O)[C@H]2O)[C@H](N)[C@@H](O)[C@@H]1O (single isomer, unassigned) [Compound XVβ]	24
NC[C@H]1O[C@H](O[C@@H]2[C@@H](N)C[C@@H](N)C[C@H]2O[C@@H]2C[C@@H](N)[C@H](O)[C@@H](CO)O2)[C@H](N)[C@@H](O)[C@@H]1O	15
C[C@@]1(O)C[C@H](N)C[C@H](N)[C@H]1O[C@H]1O[C@H](CN)[C@@H](O)[C@H](O)[C@H]1N	21
NC[C@H]1O[C@H](O[C@@H]2[C@@H](N)C[C@@H](N)C[C@H]2OC2O[C@H](CO)[C@@H](O)[C@H]2O)[C@H](N)[C@@H](O)[C@@H]1O (single isomer, unassigned) [Compound XVα]	20
NC[C@H]1O[C@H](O[C@H]2[C@H](O)[C@@H](O)[C@H](N)C[C@@H]2N)[C@H](N)[C@@H](O)[C@@H]1O	24
NC[C@H]1O[C@H](O[C@@H]2[C@@H](N)C[C@@H](N)C[C@@H]2O)[C@H](N)[C@@H](O)[C@@H]1O [6-Deoxy-5-epineamine]	21

----------
Tested on: S. schottmuelleri UC 126
Test: standard microplate test in BHI Agar, MIC
Format: cell-based
Conditions: 37°, 20 hours, read-out: Minimal Inhibitory Concentration
Listed compounds paired with reported MIC
QUANTITY: MIC (µg/mL)

COMPOUND	TARGET OR TEST SYSTEM	UNITS	SIGN	OBSERVED VALUE
NC[C@H]1O[C@H](O[C@@H]2[C@@H](N)C[C@@H](N)C[C@H]2OC2O[C@H](CO)[C@@H](O)[C@H]2O)[C@H](N)[C@@H](O)[C@@H]1O (single isomer, unassigned) [Compound XVβ]	S. schottmuelleri UC 126	µg/mL	=	7.8
NC[C@H]1O[C@H](O[C@H]2[C@H](O)[C@@H](O)[C@H](N)C[C@@H]2N)[C@H](N)[C@@H](O)[C@@H]1O [Neamine]	S. schottmuelleri UC 126	µg/mL	=	15.6
NC[C@H]1O[C@H](O[C@@H]2[C@@H](N)C[C@@H](N)C[C@H]2O[C@@H]2C[C@@H](N)[C@H](O)[C@@H](CO)O2)[C@H](N)[C@@H](O)[C@@H]1O [Compound XVI]	S. schottmuelleri UC 126	µg/mL	>	500
NC[C@H]1O[C@H](O[C@@H]2[C@@H](N)C[C@@H](N)C[C@H]2OC2O[C@H](CO)[C@@H](O)[C@H]2O)[C@H](N)[C@@H](O)[C@@H]1O (single isomer, unassigned) [Compound XVα]	S. schottmuelleri UC 126	µg/mL	=	125
